Hey, just so you know, these numbers are from PubChem BioAssay (NCI).

Assay: NCI Yeast Anticancer Drug Screen. Data for the mlh1 rad18 strain (AID 175)
Conditions: S. cerevisiae mlh1 rad18 strain growth inhibition; at 50.0 µM; hits give high values
Experimental: Growth inhibition of yeast strains with defined genetic alterations is measured as a screen for potential anti-cancer activity. Selected strains with alterations in DNA damage repair or cell cycle control were exposed to compounds and growth inhibition was measured relative to vehicle treated controls. The strain used in this assay is mlh1 rad18
Compounds without any hit were thinned out: in the full panel of roughly 79,000, 15% have a hit.
Experimental endpoint: growth inhibition (%)

- CC(=O)c1cc2c(cc1C)C(C)CCC2(C)C (configuration not stated): -22.5
- COC(=O)C(=O)OC: -3.35
- N#CCCc1c(-c2ccccc2)nc(N)[nH]c1=O: -9.75
- CC(=O)c1ccccc1C: -22.3
- N#CC12CC3(CCC1CCC1(C2)OCCO1)OCCO3 (configuration not stated): -1
- CCCC(O)(c1ccccc1)c1ccccc1: 4.5
- CCOC(=O)N1CCCCC1: 5.95
- O=c1ccccc2cccc(O)c12: 10.3
- Cc1cc(N2CCCCC2)nc2ccc(Cc3ccc4nc(N5CCCCC5)cc(C)c4c3)cc12: 27.5
- O=c1oc2ncccc2n1Cc1ccc([N+](=O)[O-])cc1: 19.6
- N[C@H](C(=O)O)[C@H]1ON=C(Cl)[C@@H]1O: -2.15
- Nc1ccc(S(=O)(=O)NC(=O)c2ccccc2)cc1: 0.2
- N#C/C(=C\c1ccc(Cl)cc1)C(=O)c1ccccc1: 22.7
- O=C(/C=C(\C(=O)c1ccccc1)c1ccccc1)c1ccc(-c2ccccc2)cc1: -16.9
- Cc1cccc(C2CCCCC2OS(C)(=O)=O)c1 (configuration not stated): -13.6
- COc1ccc(OC)c(C(O)P(=O)(c2ccccc2)c2ccccc2)c1 (configuration not stated): 27.2
- CC(C)CSC(C)C: -11.1
- NC(=O)C1C2CC3C(C2)C31 (configuration not stated): 4.95
- CC(=O)Nc1ccc(NC(=O)Nc2cccc(Cl)c2C)cc1: 5.3
- COc1cc(NCCCCCN2C(=O)c3ccccc3C2=O)c2ncccc2c1: 0.1
- CO[C@H](C)[C@@](O)(C(=O)OCC1=CCN2CCC[C@@H]12)C(C)C: 16.3
- C=CCn1c(=O)n(CC=C)c(=O)n(CC=C)c1=O: -10.8
- O=C(O)c1ccc(OS(=O)(=O)c2ccccc2)cc1: 16.3
- CC(=O)c1c(O)ccc2c(C)cc(=O)oc12: 15.8
- COC(OC)c1ccccc1CO: -14.8
- N#CC(C(=O)CCC(=O)C(C#N)c1c(Cl)cccc1Cl)c1c(Cl)cccc1Cl (configuration not stated): -11.1
- C/C(=N/N)c1sc(-c2nc(C)c(/C(C)=N\N)s2)nc1C: -11.3

====

Test: NCI Yeast Anticancer Drug Screen. Data for the bub3 strain (AID 167)
Conditions: S. cerevisiae bub3 mutant strain, at 50.0 µM, hits give high values
Experimental: Growth inhibition of yeast strains with defined genetic alterations is measured as a screen for potential anti-cancer activity. Selected strains with alterations in DNA damage repair or cell cycle control were exposed to compounds and growth inhibition was measured relative to vehicle treated controls. The strain used in this assay is bub3
This is part of a sample that, as a whole, favours compounds with a hit. Of some 79,000 tested, about 15% had one in any assay.
Experimental endpoint: growth inhibition (%)

- CCCCn1cccc1: 26.8
- O=Cc1ccc(OCc2cccc([N+](=O)[O-])c2)cc1: 31.4
- Cc1cc(=O)oc2cc(OCc3ccccc3)cc(O)c12: 6.45
- COc1ccc(C(Cc2ccccc2)Nc2ccccc2)cc1 (stereo not given): -0.95
- N#Cc1c(C#N)c(-c2cccc([N+](=O)[O-])c2)n(-c2ccccc2)c1N: -16.6
- Cc1nn(C(=O)Cc2ccccc2)c2c1C(c1ccc([N+](=O)[O-])cc1)SC(N)=N2 (stereo not given): 8.15
- CCCCC1CCC(C(=O)O)=NC1 (stereo not given): -0.45
- CN(C/C=C/CN(C)C(=S)Nc1ccccc1)C(=S)Nc1ccccc1: 2.85
- CCN(CC)C(=S)N=N/C(C)=C1/C=CC=CN1O: 16.2
- CCCCCCCCCCCc1cc(=O)n(-c2ccccc2)n1C: 98.5
- COc1ccc(CCN=C(C)c2cc(Cl)cc(Cl)c2O)cc1OC: -0.4
- CCN(CC)CCOC(=O)Cc1cccc2c(=O)cc(-c3ccc(OC)cc3)oc12: -10.2
- NC(=S)NNC(=O)c1ccc([N+](=O)[O-])cc1: 1.35
- CC(O)CC(C)CO (stereo not given): 15.2
- Oc1[nH]c2ccccc2c1N=NC1=NCCCCN1: -3.35
- Cc1nc(-c2ccccc2)ncc1C(O)CN1CCOCC1 (stereo not given): -23
- COc1ccc(/C=N/NC(=O)NCCNCCO)cc1: -39.5
- CC12CCC/C(=N\NC(N)=S)C1C(=O)NC(=O)C2 (stereo not given): 12.4
- CC/C=C(\C)C(C#N)(CCC)C(=O)OCC (stereo not given): -25.6
- Cc1nnc2c3nccnc3c(Cl)nn12: 9
- Cc1[nH]c(=O)[nH]c(=O)c1/C=C/C(=O)NC(CO)CS(=O)C(C)C (stereo not given): 79.7
- Cc1ccc(Cl)cc1NC(=O)Oc1cc(C)c(Cl)c(C)c1: 25.7
- O=C(OCC1OC(Br)CC(OC(=O)c2ccc([N+](=O)[O-])cc2)C1OC(=O)c1ccc([N+](=O)[O-])cc1)c1ccc([N+](=O)[O-])cc1 (stereo not given): -8.95
- Cn1c(=O)sc2ccccc21: -8.8
- CCC/C(=N/NC(=O)C(N)=O)C(CC)C(=O)CCC(=O)N(Cc1ccccc1)Cc1ccccc1 (stereo not given): -10.4
